Molecular target: rat 5-HT7 receptor (Rattus norvegicus (Rat), UniProt P32305)
Sequence (P32305 1-435): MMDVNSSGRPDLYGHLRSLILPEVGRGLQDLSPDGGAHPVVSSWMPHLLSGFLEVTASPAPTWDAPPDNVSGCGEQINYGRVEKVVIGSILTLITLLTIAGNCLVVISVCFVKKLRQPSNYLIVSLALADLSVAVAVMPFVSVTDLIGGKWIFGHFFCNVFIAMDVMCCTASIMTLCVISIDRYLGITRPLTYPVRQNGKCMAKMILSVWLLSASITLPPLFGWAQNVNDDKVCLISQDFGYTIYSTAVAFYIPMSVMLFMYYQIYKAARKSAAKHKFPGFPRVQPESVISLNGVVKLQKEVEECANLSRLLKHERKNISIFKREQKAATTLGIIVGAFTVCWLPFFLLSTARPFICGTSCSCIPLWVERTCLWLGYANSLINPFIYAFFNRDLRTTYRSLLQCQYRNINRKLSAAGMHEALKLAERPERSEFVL
Assay: r5-HT7 binding assay, competitive radioligand binding with [3H]5-CT
Details: rat 5-HT7 receptor, HEK-293 membranes
pKi: −log10 of the molar value.
metric: pKi

// solved cases for pKi follow
Prompt: Report pKi on rat 5-HT7 receptor (Rattus norvegicus (Rat), UniProt P32305) for this entry: CC(C)N1CC(Oc2cc(F)ccc2OCc2ccc(C(F)(F)F)o2)C1
Response: 7.89

Prompt: Report pKi on rat 5-HT7 receptor (Rattus norvegicus (Rat), UniProt P32305) for this entry: CCC(Oc1ccc(Cl)cc1OC1CCNCC1)c1cccc(C(F)(F)F)c1 (racemic)
Response: 6.35

Prompt: Report pKi on rat 5-HT7 receptor (Rattus norvegicus (Rat), UniProt P32305) for this entry: FCC(Oc1ccc(Br)cc1OC1CNC1)c1ccccc1 (centres unmarked)
Response: 7.04

[I] CC(Oc1ccc(Cl)cc1OC1CNC1)c1ccc(Cl)c(Cl)c1 (racemic)
[II] CN1CC[C@@H](Oc2ccc(Cl)cc2OCc2ccccc2)C1
Prompt: // select label with min value of measured pKi from [ I , II ] Lab note: record the label of whichever item you select.
Response: II

* * *

Target: rat 5-HT7 receptor (Rattus norvegicus (Rat), UniProt P32305)
Test: r5-HT7 binding assay, competitive radioligand binding with [3H]5-CT
Settings: rat 5-HT7 receptor, HEK-293 membranes
pKi: −log10 of the molar value.
metric: pKi

// solved cases for pKi follow
Prompt: Report pKi on rat 5-HT7 receptor (Rattus norvegicus (Rat), UniProt P32305) for this entry: Clc1ccc(OC2CCc3ccccc3C2)c(OC2CNC2)c1 (stereo not drawn)
Response: 7.48

Prompt: Report pKi on rat 5-HT7 receptor (Rattus norvegicus (Rat), UniProt P32305) for this entry: FC(F)(F)c1ccccc1COc1ccc(Cl)cc1OC1CNC1
Response: 7.28

Prompt: Report pKi on rat 5-HT7 receptor (Rattus norvegicus (Rat), UniProt P32305) for this entry: FC(F)(F)Oc1ccc(COc2ccc(Cl)cc2OC2CNC2)cc1Cl
Response: 6.89

Prompt: Report pKi on rat 5-HT7 receptor (Rattus norvegicus (Rat), UniProt P32305) for this entry: CN1CCC(Oc2ccccc2OCc2cccc(OS(C)(=O)=O)c2)C1 (racemic)
Response: 6.82

Prompt: Report pKi on rat 5-HT7 receptor (Rattus norvegicus (Rat), UniProt P32305) for this entry: CC(Oc1ccc(Cl)cc1OC1CN(Cc2ccccc2)C1)c1cccc(C(F)(F)F)c1 (racemic)
Response: 7.44

[A] CS(=O)(=O)c1cccc(COc2ccc(Cl)cc2OC2CNC2)c1
[B] N#Cc1ccc(COc2ccc(Cl)cc2OC2CNC2)cc1
Prompt: Of A and B , whose reported pKi is the larger number? Lab note: record the label of whichever item you select.
Response: B
(B: 7.06, A: 6.64)

* * *

Molecular target: h5HT2B (Homo sapiens (Human), UniProt P41595)
Sequence (P41595 whole entry): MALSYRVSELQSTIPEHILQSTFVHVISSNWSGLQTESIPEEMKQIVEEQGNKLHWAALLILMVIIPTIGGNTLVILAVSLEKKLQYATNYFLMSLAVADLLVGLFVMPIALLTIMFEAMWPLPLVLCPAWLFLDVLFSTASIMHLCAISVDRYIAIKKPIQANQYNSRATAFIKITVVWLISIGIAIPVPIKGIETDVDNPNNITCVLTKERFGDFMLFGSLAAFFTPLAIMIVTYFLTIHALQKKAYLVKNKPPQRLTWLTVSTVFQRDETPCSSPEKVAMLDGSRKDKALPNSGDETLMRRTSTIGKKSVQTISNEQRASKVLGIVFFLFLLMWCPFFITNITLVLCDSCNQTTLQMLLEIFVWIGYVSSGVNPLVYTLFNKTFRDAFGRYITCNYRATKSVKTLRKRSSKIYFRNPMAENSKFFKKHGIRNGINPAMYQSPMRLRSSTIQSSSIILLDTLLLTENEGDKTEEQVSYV
Assay: h5HT2B binding
pKi: −log10 of the molar value.
metric: pKi

Prompt: Report pKi on h5HT2B (Homo sapiens (Human), UniProt P41595) for this entry: FC(F)(COc1ccc(Cl)cc1OC1CNC1)c1ccccc1 [Example 184]
Response: 7.92

Prompt: Report pKi on h5HT2B (Homo sapiens (Human), UniProt P41595) for this entry: Cc1nc(COc2ccc(Cl)cc2OC2CNC2)cs1 [Example 29]
Response: 6.28

Prompt: Report pKi on h5HT2B (Homo sapiens (Human), UniProt P41595) for this entry: CC(Oc1ccc(Cl)cc1OC1CNC1)c1cccc(C(F)(F)F)c1 (stereo in doubt) [Example 101]
Response: 6.69

[I] Clc1ccc(O[C@@H]2CCNC2)c(OCc2ccccc2)c1 [Example 90]
[II] CN1CC[C@@H](Oc2ccc(Cl)cc2OCc2cccc(Cl)c2)C1 [Example 93]
Prompt: // select label with min value of measured pKi from [ I , II ] Lab note: record the label of whichever item you select.
Response: I
(I: 7.08, II: 7.89)

* * *

Target: rat 5-HT7 receptor (Rattus norvegicus (Rat))
Experiment: r5-HT7 binding assay, competitive radioligand binding with [3H]5-CT
Settings: rat 5-HT7 receptor, HEK-293 membranes
metric: Ki (nM)

Prompt: State, in one line, measured Ki of Clc1cnc(OCc2ccccc2)c(OC2CNC2)c1
Response: 359

Prompt: State, in one line, measured Ki of CC(Oc1ccc(Cl)cc1OC1CNC1)c1cncs1 (centres unmarked)
Response: 456

[1] Clc1ccc(OCC2CCc3ccccc3O2)c(OC2CNC2)c1 (centres unmarked)
[2] CN1CC(Oc2cc(Br)ccc2OCc2ccccc2Cl)C1
Prompt: // select label with min value of measured Ki from [ 1 , 2 ] Lab note: record the label of whichever item you select.
Response: 1

* * *

Each entry below carries its recorded Ki.
Molecular target: h5HT2B (Homo sapiens (Human), UniProt P41595)
Test: h5HT2B binding
Give the value in µM but do not write µM after it.

Prompt: State, in one line, measured Ki of Clc1cccc(CCOc2ccc(Cl)cc2OC2CNC2)c1
Response: 0.007

Prompt: State, in one line, measured Ki of Clc1ccc(OC2CCc3ccc(Cl)cc32)c(OC2CNC2)c1 (racemic)
Response: 0.041

Prompt: State, in one line, measured Ki of CC(Oc1ccc(Br)cc1OC1CNC1)c1cccc(Cl)c1 (racemic)
Response: 0.069

Prompt: State, in one line, measured Ki of Clc1cccc(COc2ccc(Br)cc2OC2CNC2)c1
Response: 0.074

Prompt: State, in one line, measured Ki of FC(F)(F)c1ccc2c(c1)C(Oc1ccc(Cl)cc1OC1CNC1)CC2 (centres unmarked)
Response: 0.025

* * *

Target: h5HT2C (Homo sapiens (Human))
Sequence (P28335 33-458): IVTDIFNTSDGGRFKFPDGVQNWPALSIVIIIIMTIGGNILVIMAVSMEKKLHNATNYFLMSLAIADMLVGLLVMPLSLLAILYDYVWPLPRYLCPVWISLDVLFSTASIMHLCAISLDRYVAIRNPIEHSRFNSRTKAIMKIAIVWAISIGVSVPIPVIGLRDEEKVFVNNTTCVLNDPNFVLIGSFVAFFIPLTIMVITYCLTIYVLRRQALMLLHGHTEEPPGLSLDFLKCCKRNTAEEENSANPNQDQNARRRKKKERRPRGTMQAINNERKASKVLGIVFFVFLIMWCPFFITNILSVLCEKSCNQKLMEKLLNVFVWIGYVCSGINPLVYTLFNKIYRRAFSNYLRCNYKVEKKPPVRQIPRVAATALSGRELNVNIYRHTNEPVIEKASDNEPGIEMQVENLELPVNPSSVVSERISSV
Assay: h5HT2C binding
pKi: −log10 of the molar value.
metric: pKi

// solved cases for pKi follow
Prompt: Report pKi on h5HT2C (Homo sapiens (Human)) for this entry: COc1cccc(CCOc2ccc(Cl)cc2OC2CNC2)c1 [Example 190]
Response: 7.25

Prompt: Report pKi on h5HT2C (Homo sapiens (Human)) for this entry: C[C@@H](Oc1ccc(C(F)(F)F)cc1OC1CNC1)c1cccc(C(F)(F)F)c1 (stereo in doubt) [Example 200]
Response: 5.30

Prompt: Report pKi on h5HT2C (Homo sapiens (Human)) for this entry: Clc1cccc(COc2cc(Cl)ccc2O[C@@H]2CCNC2)c1 [Example 92]
Response: 6.96

Prompt: Report pKi on h5HT2C (Homo sapiens (Human)) for this entry: CC(Oc1ccc(Br)cc1OC1CNC1)c1cccc(Cl)c1 (racemic) [Example 111]
Response: 6.48

[1] FC(F)(F)c1ccnc(COc2ccc(Cl)cc2OC2CNC2)c1 [Example 81]
[2] COc1ccc(CCOc2ccc(Cl)cc2OC2CNC2)cc1 [Example 194]
[3] Clc1ccc(C2(COc3ccc(Cl)cc3OC3CNC3)CCC2)cc1 [Example 188]
[4] COC(COc1ccc(Cl)cc1OC1CNC1)c1ccccc1 (stereo not shown) [Example 168]
Prompt: Endpoint returns the given compounds ordered by ascending pKi. Sort and list the labels as requested.
Response: 1, 3, 2, 4

* * *

Molecular target: UniProt P32305
Experiment: HitHunter cAMP assay, antagonist testing against 100 nM 5-CT
Type: cell-based
Details: antagonist testing, 100 nM 5-CT challenge, HEK-293 r5-HT7; read-out: R5HT7 cAMP pKb (converted)
metric: Kb (µM)

// solved cases for Kb follow
Prompt: State, in one line, measured Kb of FC(F)(F)c1ccc(COc2ccc(Br)cc2OC2CNC2)o1 [Example 10]
Response: 0.00631

Prompt: State, in one line, measured Kb of CC(Oc1ccc(Cl)cc1OC1CNC1)c1ccc(C(F)(F)F)o1 (racemic) [Example 146]
Response: 0.00794

Prompt: State, in one line, measured Kb of Brc1cccc(Oc2ccc(Br)cc2OC2CNC2)c1 [Example 245]
Response: 0.2

Prompt: State, in one line, measured Kb of Brc1ccc(OC2CCc3ccccc32)c(OC2CNC2)c1 (racemic) [Example 151]
Response: 0.0316

[1] Clc1ccc2c(c1)C(Oc1ccc(Br)cc1OC1CNC1)CC2 (racemic) [Example 153]
[2] Fc1ccccc1COc1ccc(Br)cc1OC1CCNCC1 [Example 67]
Prompt: // select label with min value of measured Kb from [ 1 , 2 ] Lab note: record the label of whichever item you select.
Response: 1

* * *

Biological target: h5HT2C (Homo sapiens (Human))
Experiment: h5HT2C binding
metric: Ki (nM)

// solved cases for Ki follow
Prompt: State, in one line, measured Ki of Clc1ccc(O[C@@H]2CCNC2)c(OCc2ccccc2)c1
Response: 160

Prompt: State, in one line, measured Ki of Brc1ccc(OCCc2ccccc2)c(OC2CNC2)c1
Response: 42

Prompt: State, in one line, measured Ki of Clc1cccc(COc2ccc(Br)cc2OC2CNC2)c1
Response: 760

Prompt: State, in one line, measured Ki of Clc1ccc(OC2CCc3ccc(Cl)cc32)c(OC2CNC2)c1 (racemic)
Response: 196

Prompt: State, in one line, measured Ki of FC(F)(F)c1cccc(COc2ccc(Cl)cc2OC2CNC2)n1
Response: 290

Prompt: State, in one line, measured Ki of CC(Oc1ccc(Cl)cc1OC1CNC1)c1cccc(C(F)(F)F)c1 (stereo in doubt)
Response: 933

Prompt: State, in one line, measured Ki of Cc1nc(COc2ccc(Cl)cc2OC2CNC2)cs1
Response: 1110

Prompt: State, in one line, measured Ki of Clc1ccc(OCCc2ccccc2)c(OC2CNC2)c1
Response: 79

[P] C[C@@H](Oc1ccc(Cl)cc1OC1CCNCC1)c1cccc(C(F)(F)F)c1
[Q] COc1ccc2c(c1)CC(Oc1ccc(Cl)cc1OC1CNC1)C2 (stereo not shown)
Prompt: Of P and Q , whose reported Ki is the larger number? Lab note: record the label of whichever item you select.
Response: P
(P: 755 nM, Q: 140 nM)
